# Method: Growth inhibition of human COLO205 cells assessed as cell growth at 10^-6 M incubated for 48 hrs by sulforhodamine B assay
# Assay type: functional
# Assay conditions: COLO 205, 48 h, read-out: Activity
I'd be grateful if you could share measured growth at 1 µM for these entries.
# value in %; strip the unit string

// query Note growth at 1 µM for the molecule shown: `Clc1ccc(-c2nc(Nc3ccc(-c4nc5ccccc5[nH]4)cc3)nc(N3CCOCC3)n2)cc1`
// result 2

// query Note growth at 1 µM for the molecule shown: `c1ccc(-c2nc(Nc3ccc(-c4nc5ccccc5[nH]4)cc3)nc(N3CCOCC3)n2)cc1`
// result 72

// query Note growth at 1 µM for the molecule shown: `Fc1ccc(-c2nc(Nc3ccc(-c4nc5ccccc5[nH]4)cc3)nc(N3CCOCC3)n2)cc1`
// result 92

// query Note growth at 1 µM for the molecule shown: `c1ccc2[nH]c(-c3ccc(Nc4nc(N5CCCCC5)nc(N5CCOCC5)n4)cc3)nc2c1`
// result 92

----------
I'd be grateful if you could share measured TGI for these entries.
# Tested on: NCI-H522
# Method: Growth inhibition of human NCI-H522 cells incubated for 48 hrs by sulforhodamine B assay
# Assay type: functional
# Assay conditions: NCI-H522, 48 h, read-out: TGI
# value in µM; strip the unit string

// query Note TGI for the molecule shown: `Clc1ccc(-c2nc(Nc3ccc(-c4nc5ccccc5[nH]4)cc3)nc(N3CCOCC3)n2)cc1`
// result 3.19

// query Note TGI for the molecule shown: `Fc1ccc(-c2nc(Nc3ccc(-c4nc5ccccc5[nH]4)cc3)nc(N3CCOCC3)n2)cc1`
// result 5.85

// query Note TGI for the molecule shown: `c1ccc2[nH]c(-c3ccc(Nc4nc(N5CCCCC5)nc(N5CCOCC5)n4)cc3)nc2c1`
// result 6.22

// query Note TGI for the molecule shown: `c1ccc(-c2nc(Nc3ccc(-c4nc5ccccc5[nH]4)cc3)nc(N3CCOCC3)n2)cc1`
// result 3.92

----------
# Tested on: HT-29
# Method: Growth inhibition of human HT-29 cells assessed as cell growth at 10 uM incubated for 48 hrs by sulforhodamine B assay
# Assay type: functional
# Assay conditions: HT-29, 48 h, read-out: Activity
Measured parameter: growth at 10 µM (%)
# value in %; strip the unit string

// query Report its growth at 10 µM with HT-29 as the test system: `Fc1ccc(-c2nc(Nc3ccc(-c4nc5ccccc5[nH]4)cc3)nc(N3CCOCC3)n2)cc1`
// result -23.1

// query Report its growth at 10 µM with HT-29 as the test system: `c1ccc(-c2nc(Nc3ccc(-c4nc5ccccc5[nH]4)cc3)nc(N3CCOCC3)n2)cc1`
// result -59.9

// query Report its growth at 10 µM with HT-29 as the test system: `c1ccc2[nH]c(-c3ccc(Nc4nc(N5CCCCC5)nc(N5CCOCC5)n4)cc3)nc2c1`
// result -28.1

// query Report its growth at 10 µM with HT-29 as the test system: `Clc1ccc(-c2nc(Nc3ccc(-c4nc5ccccc5[nH]4)cc3)nc(N3CCOCC3)n2)cc1`
// result -78.6

----------
I'd be grateful if you could share measured growth at 0.1 µM for these entries.
# Method: Growth inhibition of human SNB19 cells assessed as cell growth at 10^-7 M incubated for 48 hrs by sulforhodamine B assay
# Format: functional
# Assay conditions: SNB-19, 48 h, read-out: Activity
# value in %; strip the unit string

// query Note growth at 0.1 µM for the compound shown: `Clc1ccc(-c2nc(Nc3ccc(-c4nc5ccccc5[nH]4)cc3)nc(N3CCOCC3)n2)cc1`
// result 95

// query Note growth at 0.1 µM for the compound shown: `Fc1ccc(-c2nc(Nc3ccc(-c4nc5ccccc5[nH]4)cc3)nc(N3CCOCC3)n2)cc1`
// result 97

// query Note growth at 0.1 µM for the compound shown: `c1ccc(-c2nc(Nc3ccc(-c4nc5ccccc5[nH]4)cc3)nc(N3CCOCC3)n2)cc1`
// result 95

// query Note growth at 0.1 µM for the compound shown: `c1ccc2[nH]c(-c3ccc(Nc4nc(N5CCCCC5)nc(N5CCOCC5)n4)cc3)nc2c1`
// result 98
